- tested on: ENPP1 (Homo sapiens)
- Sequence (P22413 1-925): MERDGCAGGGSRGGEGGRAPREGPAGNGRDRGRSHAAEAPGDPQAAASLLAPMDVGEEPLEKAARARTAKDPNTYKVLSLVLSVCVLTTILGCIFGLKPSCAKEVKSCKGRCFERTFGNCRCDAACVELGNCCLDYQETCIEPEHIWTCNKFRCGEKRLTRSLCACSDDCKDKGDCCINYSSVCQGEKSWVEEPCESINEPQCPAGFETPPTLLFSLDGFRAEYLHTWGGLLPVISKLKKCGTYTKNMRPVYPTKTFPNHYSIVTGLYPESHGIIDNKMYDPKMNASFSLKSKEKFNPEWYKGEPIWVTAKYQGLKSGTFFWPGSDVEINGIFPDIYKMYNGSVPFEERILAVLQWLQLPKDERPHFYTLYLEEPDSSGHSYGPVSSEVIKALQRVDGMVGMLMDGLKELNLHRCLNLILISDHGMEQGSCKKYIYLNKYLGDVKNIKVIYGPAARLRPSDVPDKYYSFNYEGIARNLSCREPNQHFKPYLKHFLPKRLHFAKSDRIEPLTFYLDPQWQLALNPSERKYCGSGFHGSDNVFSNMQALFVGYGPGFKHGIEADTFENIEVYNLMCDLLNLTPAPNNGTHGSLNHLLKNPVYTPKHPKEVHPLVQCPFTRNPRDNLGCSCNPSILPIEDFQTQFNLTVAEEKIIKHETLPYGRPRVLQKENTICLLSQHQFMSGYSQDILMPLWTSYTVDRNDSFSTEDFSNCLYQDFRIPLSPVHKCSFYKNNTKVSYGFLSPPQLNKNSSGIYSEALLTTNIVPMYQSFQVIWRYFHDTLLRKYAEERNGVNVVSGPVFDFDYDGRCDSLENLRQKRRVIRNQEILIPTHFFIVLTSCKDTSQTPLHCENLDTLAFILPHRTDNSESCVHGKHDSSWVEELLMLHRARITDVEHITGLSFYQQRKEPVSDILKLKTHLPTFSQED
- method notes: ENPP1 enzyme assay with AMP-pNP substrate (hydrolysis of ATP analog)
- Format: biochemical
- assay setup: AMP-pNP substrate (ATP analog); Ki from IC50 by Cheng-Prusoff; read-out: ENPP1 Inhibition _AMP-pNP: Ki
pKi: −log10 of the molar value.

>  <molecule>
COc1ccc2c(N3CCc4cc(N(C)S(N)(=O)=O)ccc43)ccnc2c1 [Example 418]

>  <pKi>
6.00 to 7.00

$$$$
>  <molecule>
COc1ccc2c(Sc3ccc(NS(N)(=O)=O)cc3)ccnc2c1 [Example 302]

>  <pKi>
6.00 to 7.00

$$$$
>  <molecule>
COc1cc2ncc(C#N)c(-c3ccc(CNS(N)(=O)=O)cc3)c2cc1F [Example 395]

>  <pKi>
6.00 to 7.00

$$$$
>  <molecule>
COc1cc2nccc(Oc3ccc(NS(N)(=O)=O)cc3)c2cn1 [Example 330]

>  <pKi>
6.00 to 7.00

$$$$
>  <molecule>
COc1cc2ncnc(N3CCC(CCN(O)C=O)CC3)c2cc1OC [Example 219]

>  <pKi>
6.00 to 7.00

$$$$
>  <molecule>
COc1ccc2c(-c3ccc(CNS(N)(=O)=O)s3)ccnc2c1 [Example 389]

>  <pKi>
> 7.00

$$$$
>  <molecule>
COc1ccc2nccc(Oc3ccc(S(N)(=O)=O)cc3)c2c1 [Example 355]

>  <pKi>
< 6.00

$$$$
>  <molecule>
COc1cc2ncnc(N3CCC(CCNS(=O)(=O)NC(C)=O)CC3)c2cc1OC [Example 200]

>  <pKi>
< 6.00

$$$$
>  <molecule>
COc1cc2nccc(N3CC4(C3)CN(S(N)(=O)=O)C4)c2cc1OC [Example 214]

>  <pKi>
< 6.00

$$$$
